# Tested on: Escherichia coli TOP10;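 further: peptides expressed intracellularly from a pBAD plasmid library in pooled LB shake-flask culture, induced with 0.3% L-arabinose, DNA abundance read by NGS, three biological replicates, DESeq2 with apeglm shrinkage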
# Method notes: shrunken log2 fold change of peptide-encoding DNA abundance (4.5 h post-induction vs induction); higher = less antimicrobial activity (less host growth inhibition)
# Protocol conditions: time post-induction: 4.5 h; library: site-saturation at positions 5, 18, 19, 20
Would you mind labelling by shrunken log2 fold change? At or over 0.1 is 1 (yes), under is 0 (no).

Qu. Please tell me: is the sequence RRIRVRPPRLPRPRPRPYREPRP at or over 0.1 in terms of shrunken log2 fold change?
Ans. 0 (no)

More entries:
Qu. Textbook exercise: given the entry RRIRNRPPRLPRPRPRPHIVPRP , state whether its shrunken log2 fold change is greater than or equal to 0.1.
Ans. 0 (no)

Qu. In plain terms: is recorded shrunken log2 fold change at least 0.1 for RRIRSRPPRLPRPRPRPAENPRP ?
Ans. 1 (yes)
